Measurement Target: recombinant human KLK5 (human) (UniProt Q9Y337)
Sequence (Q9Y337 67-293): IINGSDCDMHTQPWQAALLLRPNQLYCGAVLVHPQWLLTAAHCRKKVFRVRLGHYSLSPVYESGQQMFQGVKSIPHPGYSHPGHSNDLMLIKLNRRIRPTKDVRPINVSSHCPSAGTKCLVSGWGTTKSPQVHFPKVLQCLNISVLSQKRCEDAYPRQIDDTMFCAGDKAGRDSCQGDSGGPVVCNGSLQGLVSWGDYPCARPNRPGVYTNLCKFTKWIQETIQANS
Experiment: array SPR imaging (IBIS MX96), antibody amine-coupled, human KLK5 injected 0-300 nM, 25 C
Consider the following binders; for each one, report its koff.
Write it as a number; the unit s⁻¹ goes unstated.

Input: Provide koff value for the following binder: 8G10 (antibody, V domains shown) VH: QSLEESGGDLVKPEGSLTLTCTASGFSFSTSYWICWVRQAPGKGLEWIACVYGLDVNIYYASWTEGRFTISKTSSTTVTLQVTSLTAADTATYFCARGGGSADFGFDLWGPGTLVTVSS VL: DVVMTQTPASVSEPVGGTVTIKCQASENIYSLLAWYQQKPGQPPKVLIYDASDLASGVPSRFKGSGSGTQFTLTISDLECADAATYYCQATAYGSSGNAFGGGTEVVVK
Output: 0.000245

Input: Provide koff value for the following binder: 9H5 (antibody, V domains shown) VH: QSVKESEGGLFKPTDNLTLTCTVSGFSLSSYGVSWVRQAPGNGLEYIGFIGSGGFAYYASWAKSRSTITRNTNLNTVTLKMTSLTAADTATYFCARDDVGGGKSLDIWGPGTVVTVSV VL: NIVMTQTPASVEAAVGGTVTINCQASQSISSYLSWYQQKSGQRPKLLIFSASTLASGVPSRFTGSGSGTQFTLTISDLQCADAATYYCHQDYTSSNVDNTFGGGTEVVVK
Output: 0.000367

Input: Provide koff value for the following binder: 9H3 (antibody, V domains shown) VH: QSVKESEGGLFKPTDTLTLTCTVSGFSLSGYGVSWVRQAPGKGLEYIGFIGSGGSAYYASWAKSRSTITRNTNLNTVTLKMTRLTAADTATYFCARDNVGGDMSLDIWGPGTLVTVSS VL: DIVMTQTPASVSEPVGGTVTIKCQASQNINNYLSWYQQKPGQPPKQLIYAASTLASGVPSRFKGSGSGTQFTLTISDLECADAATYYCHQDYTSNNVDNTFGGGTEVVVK
Output: 0.000143

This collection of values is drawn from patent US20200040103A1.
